- Tested on: HeLa Kyoto
- Experiment Description: solubility change mitosis vs G1/S (difference of NP-40 vs SDS log2 ratios) (log2 ratio difference); higher = more soluble in mitosis
Note to self: values exactly at -0.01 are satisfied. So solubility change mitosis (log2) at or above -0.01 is satisfied, below is not satisfied.

| Substance | Group |
| --- | --- |
| MASGNARIGKPAPDFKATAVVDGAFKEVKLSDYKGKYVVLFFYPLDFTFVCPTEIIAFSNRAEDFRKLGCEVLGVSVDSQFTHLAWINTPRKEGGLGPLNIPLLADVTRRLSEDYGVLKTDEGIAYRGLFIIDGKGVLRQITVNDLPVGRSVDEALRLVQAFQYTDEHGEVCPAGWKPGSDTIKPNVDDSKEYFSKHN [PRDX2] | satisfied |
| MSNKEGSGGFRKRKHDNFPHNQRREGKDVNSSSPVMLAFKSFQQELDARHDKYERLVKLSRDITVESKRTIFLLHRITSAPDMEDILTESEIKLDGVRQKIFQVAQELSGEDMHQFHRAITTGLQEYVEAVSFQHFIKTRSLISMDEINKQLIFTTEDNGKENKTPSSDAQDKQFGTWRLRVTPVDYLLGVADLTGELMRMCINSVGNGDIDTPFEVSQFLRQVYDGFSFIGNTGPYEVSKKLYTLKQSLAKVENACYALKVRGSEIPKHMLADVFSVKTEMIDQEEGIS [TSNAX] | not satisfied |
| MKFVYKEEHPFEKRRSEGEKIRKKYPDRVPVIVEKAPKARIGDLDKKKYLVPSDLTVGQFYFLIRKRIHLRAEDALFFFVNNVIPPTSATMGQLYQEHHEEDFFLYIAYSDESVYGL [GABARAP] | not satisfied |
| MIEVVCNDRLGKKVRVKCNTDDTIGDLKKLIAAQTGTRWNKIVLKKWYTIFKDHVSLGDYEIHDGMNLELYYQ [UBL5] | satisfied |
| MICALL2 | not satisfied |
| MSFKREGDDWSQLNVLKKRRVGDLLASYIPEDEALMLRDGRFACAICPHRPVLDTLAMLTAHRAGKKHLSSLQLFYGKKQPGKERKQNPKHQNELRREETKAEAPLLTQTRLITQSALHRAPHYNSCCRRKYRPEAPGPSVSLSPMPPSEVKLQSGKISREPEPAAGPQAEESATVSAPAPMSPTRRRALDHYLTLRSSGWIPDGRGRWVKDENVEFDSDEEEPPDLPLD [SCNM1] | satisfied |
| MAGPAWISKVSRLLGAFHNPKQVTRGFTGGVQTVTLIPGDGIGPEISAAVMKIFDAAKAPIQWEERNVTAIQGPGGKWMIPSEAKESMDKNKMGLKGPLKTPIAAGHPSMNLLLRKTFDLYANVRPCVSIEGYKTPYTDVNIVTIRENTEGEYSGIEHVIVDGVVQSIKLITEGASKRIAEFAFEYARNNHRSNVTAVHKANIMRMSDGLFLQKCREVAESCKDIKFNEMYLDTVCLNMVQDPSQFDVLVMPNLYGDILSDLCAGLIGGLGVTPSGNIGANGVAIFESVHGTAPDIAGKDMANPTALLLSAVMMLRHMGLFDHAARIEAACFATIKDGKSLTKDLGGNAKCSDFTEEICRRVKDLD [IDH3A] | satisfied |

----------
Each entry below carries its recorded solubility change mitosis (log2).
- Test system: HeLa Kyoto;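 further: synchronized HeLa Kyoto cells (double thymidine block for G1/S, nocodazole release for mitosis), protein amounts in NP-40 versus SDS lysates quantified by mass spectrometry, three biological replicates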
- Experiment Description: solubility change mitosis vs G1/S (difference of NP-40 vs SDS log2 ratios) (log2 ratio difference); higher = more soluble in mitosis

| Macromolecule Sequence | Target Or System | solubility change mitosis (log2) |
| --- | --- | --- |
| MAAVSGLVRRPLREVSGLLKRRFHWTAPAALQVTVRDAINQGMDEELERDEKVFLLGEEVAQYDGAYKVSRGLWKKYGDKRIIDTPISEMGFAGIAVGAAMAGLRPICEFMTFNFSMQAIDQVINSAAKTYYMSGGLQPVPIVFRGPNGASAGVAAQHSQCFAAWYGHCPGLKVVSPWNSEDAKGLIKSAIRDNNPVVVLENELMYGVPFEFPPEAQSKDFLIPIGKAKIERQGTHITVVSHSRPVGHCLEAAAVLSKEGVECEVINMRTIRPMDMETIEASVMKTNHLVTVEGGWPQFGVGAEICARIMEGPAFNFLDAPAVRVTGADVPMPYAKILEDNSIPQVKDIIFAIKKTLNI [PDHB] | HeLa Kyoto | -0.117 |
| MAAEDELQLPRLPELFETGRQLLDEVEVATEPAGSRIVQEKVFKGLDLLEKAAEMLSQLDLFSRNEDLEEIASTDLKYLLVPAFQGALTMKQVNPSKRLDHLQRAREHFINYLTQCHCYHVAEFELPKTMNNSAENHTANSSMAYPSLVAMASQRQAKIQRYKQKKELEHRLSAMKSAVESGQADDERVREYYLLHLQRWIDISLEEIESIDQEIKILRERDSSREASTSNSSRQERPPVKPFILTRNMAQAKVFGAGYPSLPTMTVSDWYEQHRKYGALPDQGIAKAAPEEFRKAAQQQEEQEEKEEEDDEQTLHRAREWDDWKDTHPRGYGNRQNMG [IGBP1] | HeLa Kyoto | 0.103 |
